# System: Plasmodium berghei
# Assay name: Screen against P. berghei liver stage (PbLuc), transformed with Luciferase, at 10uM
# Format: functional, HepG2
# Test context: tested at 10 uM
About 8,600 (12%) of roughly 69,000 compounds showed an effect of 50% or more. What follows is part of a selection rich in strong results, with near analogues and random picks from the rest.
Measured INHIBITION values are reported for all entries that follow.
The response must be a number in % with no trailing unit.

Check out these entries, answers already filled in.
O=C(c1cscn1)N1CCC2(CCN(Cc3cccs3)CC2)C1    -5.12
Cc1nc(N)sc1C(=O)N[C@H]1CN(CCO)C[C@@H]1C1CC1    12
CSc1ccc(C(O)CNS(=O)(=O)C2CC2)cc1 (stereo not given)    44.9
CCN(CC)C1CCN(C(=O)c2cc3cc(C)cc(C)c3nc2C)CC1    1.05
O=C(CSC1CCCC1)N1CCN(C(=O)C2CC2c2ccccc2)CC1 (stereo not given)    46.4

What value of INHIBITION has been recorded for this entry: O=C(Nc1cncc(Br)c1O)c1ccon1
83.2

What value of INHIBITION has been recorded for this entry: CCC1CCCCN1Cc1nc2c(cnn2C)c(=O)[nH]1 (stereo not given)
25.1

What value of INHIBITION has been recorded for this entry: CCCN1CCN(C(=O)c2cnccc2C)[C@H]2CS(=O)(=O)C[C@H]21
19.4

What value of INHIBITION has been recorded for this entry: Cc1nc(C(=O)N2CCN(C(=O)N(C)C)[C@@H]3CS(=O)(=O)C[C@@H]32)cs1
57.8
